Quick list: screen value per entry.
B1: MBOAT1 peptide 17-32 (Lysophospholipid acyltransferase 1), 16-mer library wild type / NSP3 ADRP (ORF1ab Nsp3b ADRP, residues 1023-1192) (parent)
chain 1: STYLHPLSELLGIPLD
chain 2: not shown

# Variants of: B1
# TEST SETTINGS: with NSP3 ADRP (ORF1ab Nsp3b ADRP, residues 1023-1192); bait immobilised on MaxiSorp plates (10 µg), library pre-cleared on GST, 2 h binding at 4 °C, five washes; one round per day, days 1-4; value from days 2 and 3; keep out of graded; scale: average fractional NGS count over selection days 2 and 3
Answer using only a numeral; do not append any unit.

- chain 1 T2S: 5.82e-05

# screen value lookup, item chain 1 H5S
5.25e-05

Recorded screen value of chain 1 L10R , please.
0

Name the recorded screen value for chain 1 T2H .
0.000152

Using the record for chain 1 G12S , report its screen value.
0.000443

Item under review: chain 1 P14E . Reported screen value?
7.55e-05

// returns reported screen value for input chain 1 E9L
0

Give the measured screen value of chain 1 L4Y .
0.000191
